- protocol.details: Plasmodium falciparum growth inhibition, primary screen, strain 3D7, DAPI fluorescence, 100 nL (AID 1184);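 also: parasites grown inside human red blood cells in medium with human serum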
- run.parameters: P. falciparum 3D7 growth, 3 d, higher = more signal
Would you mind labelling by z-score? At or over -0.9 is 1.0, under is 0.0.

compound=O=C(NCCN1CCOCC1)[C@@H]1c2ccccc2C(=O)N(C2CCCCC2)[C@H]1c1ccc(CO)cc1 label_class=0.0
compound=CCOC(=O)C[C@H]1[C@H](OC(=O)c2ccc(C(=O)c3ccccc3)cc2)[C@@H](NC(=O)c2ccccc2)c2cc(OCCCO)ccc2N1C(=O)c1ccc2ccccc2n1 label_class=0.0
compound=COC(=O)[C@@]1(Cc2ccc(F)cc2)[C@H]2c3cc(C(=O)N(C)C)n(Cc4ccc(Cl)c(C(F)(F)F)c4)c3C[C@H]2CN1C(=O)c1ccccc1 label_class=0.0
compound="CC(C)c1ccc(NN2C(C(O)c3ccc(B(O)O)cc3)C=CC3C(=O)N(c4ccccc4)C(=O)C32)cc1 (stereo not given)" label_class=1.0
compound=CCOC(=O)C[C@H]1[C@H](OC(=O)c2ccc(C(=O)c3ccccc3)cc2)[C@@H](NC(=O)CC(C)C)c2cc(OCCCO)ccc2N1C(=O)c1ccc2ccccc2n1 label_class=1.0
compound=CCCC=C(CCC)[C@@H](NC(=O)c1cccs1)c1ccc(C(F)(F)F)cc1 label_class=0.0
compound="CC(C)C(O)C1C=CC2C(=O)N(c3ccccc3)C(=O)C2N1Nc1ccc([N+](=O)[O-])cc1 (stereo not given)" label_class=1.0
compound="O=C1OCCC/C=C\\[C@H]2OC34C=CCN(Cc5ccccc5)C(=O)[C@H]3N(CCCO)C(=O)[C@@H]4C12 (stereo not given in full)" label_class=1.0
compound="COc1ccc(C(O)C2C=CC3C(=O)N(Cc4ccccc4)C(=O)C3N2n2cnnc2)cc1OCc1ccccc1 (stereo not given)" label_class=0.0
compound=C=C(CCCC)/C(=C/C[C@H](OC(=O)c1ccncc1)c1ccccc1OCCO)c1cnc2ccccc2c1 label_class=0.0
compound="CCCCCN1CC=CC23O[C@@H]4C=CCCOC(=O)C4[C@H]2C(=O)N(CCCCCO)[C@@H]3C1=O (stereo not given in full)" label_class=1.0
compound=C=C(CC1([C@@H](NP(=O)(c2ccccc2)c2ccccc2)[C@H]2C[C@@H]2CCCC)CC1)c1ccccc1 label_class=1.0
compound=Cc1ccc(S[C@]2(C(=O)O)CC(=O)N(C(C)C)[C@@H]2c2ccc(CO)cc2I)cc1 label_class=1.0
compound=CC(C)OC(=O)C=C1C[C@@H](c2ccccn2)O[C@@H](c2ccccn2)O1 label_class=0.0
compound=COC(=O)C(CC#Cc1ccc2c(c1)[C@]1(C(=O)N2)[C@H](c2ccc(OCCO)cc2)N2[C@H](c3ccccc3)[C@H](c3ccccc3)OC(=O)[C@H]2[C@@H]1C(=O)Nc1nc2ccccc2s1)C(=O)OC label_class=0.0
